tested system: Torsin-1A (Homo sapiens)
experiment: small-molecule binders of mutant TOR1A in lysate, primary screen, cell lysate, small-molecule microarray, COS7 lysate, 635/667 nm fluorescence (AID 1150);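 also: score pools 667 nm emission and signal to noise measuring lysate protein binding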
test parameters: COS7 hTOR1A mutant lysate, 635 nm fluorescence, higher = more signal
measured parameter: composite z-score

>>> reading("COC(=O)C(CC#Cc1ccc2c(c1)[C@]1(C(=O)N2)[C@H](C(=O)O)[C@H]2C(=O)O[C@H](c3ccccc3)[C@H](c3ccccc3)N2[C@@H]1c1ccc(OCCO)cc1)C(=O)OC")
1.06
>>> reading("CCCCCN1CC=CC23O[C@@H]4/C=C\\CCC(C)OC(=O)C4[C@H]2C(=O)N(CCCO)[C@@H]3C1=O (some centres undefined)")
-0.147
>>> reading("C=C(COC)/C(=C/C[C@H](OC(C)=O)c1cccc(OCCO)c1)c1cc(C(=O)OC)ccc1OC")
1.22
>>> reading("C=CCOC(=O)[C@H]1[C@@H]2C(=O)O[C@@H](c3ccccc3)[C@@H](c3ccccc3)N2[C@@H](c2ccc(OCCOC(=O)[C@H]3C[C@H]4C(=O)N5CCC[C@H]5C(=O)N4[C@H]3c3cccc(OCCO)c3)cc2)[C@]12C(=O)Nc1ccccc12")
1.54
>>> reading("Cc1ccc(N2C(=O)c3ccccc3[C@](C)(C(=O)NC3CC3)[C@@H]2c2ccc(CO)cc2)nc1")
1.06
>>> reading("C=CCN1C(=O)[C@@]2(O[C@@H](CCO)[C@H]([Si](C)(C)c3ccc(OC)cc3)[C@H]2C)c2cc(N(C=O)c3ccccc3)ccc21")
0.0237
>>> reading("COC(=O)c1c2oc(c1C(=O)OC)C(=O)N[C@@H](C(C)C)Cn1nncc1C1(CCCCC1)NC(=O)N[C@H](CO)CC2")
-0.422
>>> reading("CC(C)(C)OC(=O)CC[C@]1(C(=O)NCc2ccccc2)N=C(c2ccc(OCCCO)cc2)O[C@H]1c1ccccc1N=[N+]=[N-]")
0.78
>>> reading("Cc1ccc(N2C(=O)c3ccccc3[C@](C)(C(=O)NCC(F)(F)F)[C@@H]2c2ccc(CO)cc2)nc1")
-0.727
>>> reading("CCCCCCC#C[Si](O[C@H](c1ccccc1)c1cn(Cc2ccccc2)nn1)(C(C)C)C(C)C")
0.345
>>> reading("CCOC(=O)C[C@H]1[C@H](OC(=O)c2ccc(-c3ccccc3)cc2)[C@@H](NC(=O)C2CCCCC2)c2cc(OCCCO)ccc2N1C(=O)c1ccc2ccccc2n1")
0.525
>>> reading("CCOC(=O)C[C@H]1[C@H](OC(=O)c2cc3ccccc3oc2=O)[C@@H](NC(=O)c2ccccc2)c2cc(OCCCO)ccc2N1C(=O)Cc1ccc(OC)cc1")
0.098
>>> reading("C=C(COC)C(=O)CC[C@@H](OC(=O)c1ccccc1-c1ccccc1C(=O)O)c1cccc(OCCO)c1")
0.455
>>> reading("O=C(NC1CC1)[C@@H]1c2ccccc2C(=O)N(Cc2ccccc2C(F)(F)F)[C@H]1c1ccc(CO)cc1")
0.723

---

experiment: HepG2 liver cancer cell viability effects, profiling panel, resazurin fluorescence, 24 h, PK04 Diversity Set (AID 1172); also: test concentration not given here
test parameters: higher = more signal
# label = 1 if z-score >= -0.2 else 0

>>> category("C[N+](C)(C)CCCCNC(=O)[C@@H]1C[C@@H]2C(=O)NCC(=O)N2[C@@H]1c1cccc(OCCO)c1")
1
>>> category("C=C[C@H](OC)[C@@H](OC(=O)Nc1ccc(OC)cc1)c1ccc(OC)c(O)c1")
1
>>> category("Cc1ccc(N2C(=O)c3ccccc3[C@](C)(C(=O)NC3CC3)[C@@H]2c2ccc(CO)cc2)nc1")
1
>>> category("COCCCNC(=O)[C@@]1(CCS(=O)(=O)c2ccccc2)N=C(c2ccc(OCCCO)cc2)O[C@H]1c1ccccc1CN=[N+]=[N-]")
0
>>> category("COc1ccc(C#Cc2ccc3c(c2)[C@]2(C(=O)N3)[C@H](c3ccc(O)cc3)N3[C@H](c4ccccc4)[C@H](c4ccccc4)OC(=O)[C@H]3[C@@H]2C(=O)N2CCN(c3ncccn3)CC2)cc1")
1
>>> category("C=CCNC(=O)[C@@H]1[C@H]2C(=O)O[C@H](c3ccccc3)[C@H](c3ccccc3)N2[C@H](c2ccc(O)cc2)[C@@]12C(=O)N(C(=O)OCCOC)c1ccc(C#Cc3ccc(OC)cc3)cc12")
0
>>> category("CC(C)C[C@@H]1NC(=O)[C@H]2C[C@@H](C(=O)NCCCC[N+](C)(C)C)[C@@H](c3cccc(OCCO)c3)N2C1=O")
1
